# System: NCI-H522
# METHOD: in vitro non-small cell lung cancer cell growth inhibition (NCI screen)
REPORTED ENDPOINT: cytotoxicity log GI50 (M)
Supply the numeric figure in M, leaving out any unit text.

Ask: Quick one: cytotoxicity log GI50 of `Cc1nc2c(n1CCN(C)C)C(=O)c1ccccc1C2=O` ?
Reply: -5.27

Ask: Quick one: cytotoxicity log GI50 of `COC(=O)CCC(=O)NC1=C(NCc2ccccc2)C(=O)c2ccccc2C1=O` ?
Reply: -4.72

Ask: Quick one: cytotoxicity log GI50 of `COc1ccc(C(=O)NC2=C(Cl)C(=O)c3ccccc3C2=O)cc1` ?
Reply: -6.42

Ask: Quick one: cytotoxicity log GI50 of `CC(=O)NC1=C(NCCCl)C(=O)c2ccccc2C1=O` ?
Reply: -4.69

Ask: Quick one: cytotoxicity log GI50 of `O=C(O)CCCc1nc2c(n1Cc1ccccc1)C(=O)c1ccccc1C2=O` ?
Reply: -4.53

Ask: Quick one: cytotoxicity log GI50 of `Cc1nc2c(n1Cc1ccc(F)cc1)C(=O)c1ccccc1C2=O` ?
Reply: -4.97

Ask: Quick one: cytotoxicity log GI50 of `NC1=C(NC(=O)Cc2ccccc2F)C(=O)c2ccccc2C1=O` ?
Reply: -4.67

Ask: Quick one: cytotoxicity log GI50 of `COc1ccc(-n2c(CCC(=O)O)nc3c2C(=O)c2ccccc2C3=O)cc1` ?
Reply: -4.46

Ask: Quick one: cytotoxicity log GI50 of `CCC(C)(C)NC1=C(NC(C)=O)C(=O)c2ccccc2C1=O` ?
Reply: -4.99

Ask: Quick one: cytotoxicity log GI50 of `O=C(NC1=C(Cl)C(=O)c2ccccc2C1=O)c1ccccc1` ?
Reply: -4.62

Ask: Quick one: cytotoxicity log GI50 of `Cc1nc2c(n1C(C)(C)C)C(=O)c1ccccc1C2=O` ?
Reply: -4.36

* * *

I'd be grateful if you could share measured cytotoxicity log GI50 for these entries.
# Tested on: HCT-116
# METHOD: in vitro colon cancer cell growth inhibition (NCI screen)
Supply the numeric figure in M, leaving out any unit text.

Ask: Quick one: cytotoxicity log GI50 of CCC(C)n1c(C)nc2c1C(=O)c1ccccc1C2=O (stereo not shown) ?
Reply: -4.50

Ask: Quick one: cytotoxicity log GI50 of `CCNC1=C(NC(=O)c2ccc(F)cc2)C(=O)c2ccccc2C1=O` ?
Reply: -4.52

Ask: Quick one: cytotoxicity log GI50 of `CC(=O)NC1=C(NCCCl)C(=O)c2ccccc2C1=O` ?
Reply: -4.69

Ask: Quick one: cytotoxicity log GI50 of `COc1cc(OC)cc(C(=O)NC2=C(Cl)C(=O)c3ccccc3C2=O)c1` ?
Reply: -6.35

Ask: Quick one: cytotoxicity log GI50 of `COc1ccc(-n2c(CCCC(=O)O)nc3c2C(=O)c2ccccc2C3=O)cc1` ?
Reply: -4.44

Ask: Quick one: cytotoxicity log GI50 of `COC(=O)CCCC(=O)NC1=C(Nc2ccc(OC)cc2)C(=O)c2ccccc2C1=O` ?
Reply: -4.71

Ask: Quick one: cytotoxicity log GI50 of `Cc1ccc(Cn2c(C)nc3c2C(=O)c2ccccc2C3=O)cc1` ?
Reply: -6.12

Ask: Quick one: cytotoxicity log GI50 of `O=C(O)CCCc1nc2c(n1Cc1ccccc1)C(=O)c1ccccc1C2=O` ?
Reply: -4.54

Ask: Quick one: cytotoxicity log GI50 of `Cc1nc2c(n1Cc1ccc(Cl)cc1)C(=O)c1ccccc1C2=O` ?
Reply: -5.59

Ask: Quick one: cytotoxicity log GI50 of `O=C(NC1=C(Cl)C(=O)c2ccccc2C1=O)c1ccccc1` ?
Reply: -4.76

* * *

# Tested on: NCI-H23
# METHOD: in vitro non-small cell lung cancer cell growth inhibition (NCI screen)
I'd be grateful if you could share measured cytotoxicity log GI50 for these entries.
Could you kindly put the unit after your number?

Ask: Quick one: cytotoxicity log GI50 of `Cc1nc2c(n1CCN(C)C)C(=O)c1ccccc1C2=O` ?
Reply: -4.92 M

Ask: Quick one: cytotoxicity log GI50 of `Cc1nc2c(n1CC(C)C)C(=O)c1ccccc1C2=O` ?
Reply: -4.74 M

Ask: Quick one: cytotoxicity log GI50 of `O=C(Cc1ccccc1F)NC1=C(Cl)C(=O)c2ccccc2C1=O` ?
Reply: -6.25 M

Ask: Quick one: cytotoxicity log GI50 of `Cc1nc2c(n1C(C)(C)C)C(=O)c1ccccc1C2=O` ?
Reply: -4.42 M

Ask: Quick one: cytotoxicity log GI50 of `CCn1c(-c2ccc(OC)cc2)nc2c1C(=O)c1ccccc1C2=O` ?
Reply: -4.21 M

Ask: Quick one: cytotoxicity log GI50 of `CCC(CC)n1c(C)nc2c1C(=O)c1ccccc1C2=O` ?
Reply: -4.67 M

Ask: Quick one: cytotoxicity log GI50 of CCCC(C)n1c(C)nc2c1C(=O)c1ccccc1C2=O (stereo not drawn) ?
Reply: -4.81 M

Ask: Quick one: cytotoxicity log GI50 of `COC(=O)CCCC(=O)NC1=C(Nc2ccc(OC)cc2)C(=O)c2ccccc2C1=O` ?
Reply: -4.69 M

Ask: Quick one: cytotoxicity log GI50 of CCC(C)Cn1c(C)nc2c1C(=O)c1ccccc1C2=O (stereo not drawn) ?
Reply: -4.68 M

* * *

# Tested on: HL-60(TB)
# METHOD: in vitro leukemia cell growth inhibition (NCI screen)
I'd be grateful if you could share measured cytotoxicity log GI50 for these entries.
Supply the numeric figure in M, leaving out any unit text.

Ask: Quick one: cytotoxicity log GI50 of CC(=O)NC1=C(NCCN(C)C)C(=O)c2ccccc2C1=O [Compound 39] ?
Reply: -5.01

Ask: Quick one: cytotoxicity log GI50 of CCC(CC)n1c(C)nc2c1C(=O)c1ccccc1C2=O [Compound 10] ?
Reply: -4.97

Ask: Quick one: cytotoxicity log GI50 of CCC(C)(C)n1c(C)nc2c1C(=O)c1ccccc1C2=O [Compound 12] ?
Reply: -5.12

* * *

I'd be grateful if you could share measured cytotoxicity log GI50 for these entries.
# System: UACC-62
# METHOD: in vitro melanoma cell growth inhibition (NCI screen)
Supply the numeric figure in M, leaving out any unit text.

Ask: Quick one: cytotoxicity log GI50 of `O=C(NC1=C(Cl)C(=O)c2ccccc2C1=O)c1ccccc1` ?
Reply: -4.62

Ask: Quick one: cytotoxicity log GI50 of `COC(=O)CCCC(=O)NC1=C(Nc2ccc(OC)cc2)C(=O)c2ccccc2C1=O` ?
Reply: -4.89

Ask: Quick one: cytotoxicity log GI50 of `Cc1nc2c(n1CCCl)C(=O)c1ccccc1C2=O` ?
Reply: -4.89

Ask: Quick one: cytotoxicity log GI50 of `Cc1nc2c(n1Cc1ccc(Cl)cc1)C(=O)c1ccccc1C2=O` ?
Reply: -5.47

Ask: Quick one: cytotoxicity log GI50 of CCC(C)n1c(C)nc2c1C(=O)c1ccccc1C2=O (stereo not drawn) ?
Reply: -4.55

Ask: Quick one: cytotoxicity log GI50 of `COC(=O)CCC(=O)NC1=C(Nc2ccccc2)C(=O)c2ccccc2C1=O` ?
Reply: -5.75

Ask: Quick one: cytotoxicity log GI50 of `CCNC1=C(NC(=O)c2ccc(OC)cc2)C(=O)c2ccccc2C1=O` ?
Reply: -4.40

Ask: Quick one: cytotoxicity log GI50 of `CCn1c(CCl)nc2c1C(=O)c1ccccc1C2=O` ?
Reply: -5.89

Ask: Quick one: cytotoxicity log GI50 of `O=C(O)CCCc1nc2c(n1Cc1ccccc1)C(=O)c1ccccc1C2=O` ?
Reply: -4.76

Ask: Quick one: cytotoxicity log GI50 of `CCC(C)(C)n1c(C)nc2c1C(=O)c1ccccc1C2=O` ?
Reply: -4.87

Ask: Quick one: cytotoxicity log GI50 of `CC(=O)NC1=C(NCC(C)C)C(=O)c2ccccc2C1=O` ?
Reply: -4.74

Ask: Quick one: cytotoxicity log GI50 of `Cc1nc2c(n1CCC(C)C)C(=O)c1ccccc1C2=O` ?
Reply: -4.91

Ask: Quick one: cytotoxicity log GI50 of `COc1ccc(-n2c(CCCC(=O)O)nc3c2C(=O)c2ccccc2C3=O)cc1` ?
Reply: -4.63

Ask: Quick one: cytotoxicity log GI50 of CCCC(C)n1c(C)nc2c1C(=O)c1ccccc1C2=O (stereo not drawn) ?
Reply: -5.17

Ask: Quick one: cytotoxicity log GI50 of `Cc1ccc(Cn2c(C)nc3c2C(=O)c2ccccc2C3=O)cc1` ?
Reply: -5.95

Ask: Quick one: cytotoxicity log GI50 of `Cc1nc2c(n1CCN(C)C)C(=O)c1ccccc1C2=O` ?
Reply: -4.92

Ask: Quick one: cytotoxicity log GI50 of `O=C(NC1=C(Cl)C(=O)c2ccccc2C1=O)c1ccc(F)cc1` ?
Reply: -6.55

Ask: Quick one: cytotoxicity log GI50 of `COc1ccc(C(=O)NC2=C(Cl)C(=O)c3ccccc3C2=O)cc1` ?
Reply: -6.12

Ask: Quick one: cytotoxicity log GI50 of `Cc1nc2c(n1Cc1ccc(F)cc1)C(=O)c1ccccc1C2=O` ?
Reply: -5.28

Ask: Quick one: cytotoxicity log GI50 of CCC(C)Cn1c(C)nc2c1C(=O)c1ccccc1C2=O (stereo not drawn) ?
Reply: -5.00

Ask: Quick one: cytotoxicity log GI50 of `CC(=O)NC1=C(NCCCl)C(=O)c2ccccc2C1=O` ?
Reply: -4.70
